Test: Permeability of compound at pH 7.4 by PAMPA assay
Format: ADME
Conditions: read-out: permeability
resultType: Papp (×10⁻⁶ cm/s)

sampleSmiles	recordedResult
CN(C)c1cccc(S(=O)(=O)Nc2ccc(-c3ccccc3N3CCCC3)nn2)c1	31.2
Cc1ccc(S(=O)(=O)Nc2ccc(-c3cccc4cccnc34)nn2)cc1	44.1
Cc1ccc(S(=O)(=O)Nc2ccc(-c3cccc(N(C)C)c3)nn2)cc1	32.4
Cc1ccc(S(=O)(=O)Nc2ccc(-c3ccccc3N3CCCCC3)nn2)cc1	50.6
Cc1ccc(S(=O)(=O)Nc2ccc(-c3cccc4c3N(C)CC4)nn2)cc1	38.5

* * *

Molecular target: Kynurenine 3-monooxygenase (Homo sapiens)
Sequence (O15229 whole entry): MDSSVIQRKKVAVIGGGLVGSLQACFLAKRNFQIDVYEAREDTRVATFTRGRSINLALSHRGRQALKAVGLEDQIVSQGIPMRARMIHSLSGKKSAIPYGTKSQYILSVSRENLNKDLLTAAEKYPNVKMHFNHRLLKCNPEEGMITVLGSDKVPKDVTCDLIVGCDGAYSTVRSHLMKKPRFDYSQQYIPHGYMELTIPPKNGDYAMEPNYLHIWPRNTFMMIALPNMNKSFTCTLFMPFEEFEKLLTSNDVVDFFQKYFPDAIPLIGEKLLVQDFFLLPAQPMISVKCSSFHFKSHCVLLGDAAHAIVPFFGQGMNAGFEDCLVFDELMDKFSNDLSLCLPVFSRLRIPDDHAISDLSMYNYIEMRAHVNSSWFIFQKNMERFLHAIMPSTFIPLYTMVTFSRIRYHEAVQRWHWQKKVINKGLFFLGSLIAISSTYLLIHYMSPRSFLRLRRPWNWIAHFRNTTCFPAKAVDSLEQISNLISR
resultType: IC50 (nM)
Please respond with the number in nM and leave the unit unwritten.

Query for Kynurenine 3-monooxygenase (Homo sapiens): what IC50 does the record show for O=C(O)C1CC1C(=O)c1ccc(Cl)c(Cl)c1 (stereo unspecified) ?
40

* * *

Test: Permeability of compound at pH 7.4 by PAMPA assay
Assay type: ADME
Settings: read-out: permeability
resultType: Papp (×10⁻⁶ cm/s)

sampleSmiles	resultType	recordedResult
COc1ccccc1-c1ccc(NS(=O)(=O)c2ccc(C)cc2)nn1	Papp	34.7
Cc1cccc(S(=O)(=O)Nc2ccc(-c3cccc(Cl)c3)nn2)c1	Papp	40.2
CN(C)c1cccc(S(=O)(=O)Nc2ccc(-c3cccc(Cl)c3)nn2)c1	Papp	42.5

(P) Cc1ccc(S(=O)(=O)Nc2ccc(-c3cccc4ccn(C)c34)nn2)cc1
(Q) O=C(O)c1cc(-c2ccc(Cl)c(OC3CC3)c2)ncn1
(R) Cc1ccc(S(=O)(=O)Nc2ccc(-c3cccc4ccncc34)nn2)cc1
Ranking field: Papp; order: falling. // rank by listing labels in the order requested
P, R, Q
(P: 49.2 ×10⁻⁶ cm/s, R: 22.4 ×10⁻⁶ cm/s, Q: 6.5 ×10⁻⁶ cm/s)

* * *

Assay: Permeability of compound at pH 7.4 by PAMPA assay
Format: ADME
Conditions: read-out: permeability
resultType: Papp (×10⁻⁶ cm/s)

sampleSmiles	unitTag	recordedResult
CN(C)c1ccccc1S(=O)(=O)Nc1ccc(-c2cccc(Cl)c2)nn1	×10⁻⁶ cm/s	35.7
Cc1ccc(S(=O)(=O)Nc2ccc(-c3ccccc3N(C)C)nn2)cc1	×10⁻⁶ cm/s	35.7
Cc1ccc(S(=O)(=O)Nc2ccc(-c3ccccc3N3CCOCC3)nn2)cc1	×10⁻⁶ cm/s	44.3
Cc1ccc(S(=O)(=O)Nc2ccc(-c3ccccc3N3CCCC3)nn2)cc1	×10⁻⁶ cm/s	43.5
